Biological target: T1, human CLDN9 (UniProt O95484 1-217)
T1 chain: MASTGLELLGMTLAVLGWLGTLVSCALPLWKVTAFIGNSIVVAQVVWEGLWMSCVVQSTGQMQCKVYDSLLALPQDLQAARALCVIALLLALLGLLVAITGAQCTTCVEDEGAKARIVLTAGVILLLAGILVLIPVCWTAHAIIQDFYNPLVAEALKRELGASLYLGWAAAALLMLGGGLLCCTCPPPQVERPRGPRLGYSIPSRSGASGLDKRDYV
Assay: HEK293E cell binding; avid
endpoint: EC50 (µg/mL)

>>> assay_value("XENP35059 H2_L1.16 (antibody, V domains shown) VH: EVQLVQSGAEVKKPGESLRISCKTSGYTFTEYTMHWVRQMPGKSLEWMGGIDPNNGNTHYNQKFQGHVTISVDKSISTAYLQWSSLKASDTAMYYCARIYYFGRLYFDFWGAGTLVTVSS VL: DIQMTQSPSSLSASVGDRVTITCQASEDIYNRLAWYQQKPGKVPKLLISAATSLETGVPSRFSGSGSGKDYTFTISSLQPEDIATYYCQQYWSSPLTFGGGTKVEIKR")
32.7
